- System: human MDR1 P-gp
- experimental-details: Assessment of efflux in MDCK cells transfected with the human MDR1 gene
- Format: in vitro ADME, canine
- measurement-parameters: dog, apical-to-basal, pH 7.4, 37° C., read-out: MDCK-PGP A-B
endpoint-label: Papp A→B (×10⁻⁶ cm/s)

Solved entries:
Cc1nnn(-c2ccc(C(F)F)cn2)c1COc1ccc(-n2cnc(C#N)c2)nn1
24
Cn1nnc(-c2ccc(C(F)F)cn2)c1COc1ccc(-c2cccc(C(N)=O)c2)nn1
3
Cc1ncc(-c2ccc(OCc3c(C)nnn3-c3ccc(C(F)F)cn3)nn2)o1
71
Cc1nnn(-c2ccc(C(F)F)cn2)c1COc1ccc(-c2ccc(N)nc2)nn1
41
Cc1nnn(-c2ccc(C(F)F)cn2)c1COc1ccc(-c2c[nH]c(=O)c(F)c2)nn1
15
Cc1nnn(-c2ccc(C(F)F)cn2)c1COc1ccc(-c2ccnnc2)nn1
51

(1) CCn1cc(-c2ccc(OCc3c(-c4ccc(C(F)F)cn4)nnn3C)nn2)cn1
(2) Cn1nnc(-c2ccc(C(F)F)cn2)c1COc1ccc(-n2cnc(C#N)c2)nn1
(3) Cn1nnc(-c2ccc(C(F)F)cn2)c1COc1ccc(-c2cnccn2)nn1
(4) Cc1nnn(-c2ccc(C(F)F)cn2)c1COc1ccc(-n2ncnc2C)nn1
Please list these in order of increasing Papp A→B. Thank you! Thanks in advance for listing the labels in the requested order.
2, 1, 3, 4
(2: 18 ×10⁻⁶ cm/s, 1: 40 ×10⁻⁶ cm/s, 3: 59 ×10⁻⁶ cm/s, 4: 86 ×10⁻⁶ cm/s)

(A) Cc1nnn(-c2ccc(C(F)F)cn2)c1COc1ccc(-c2ccc(=O)n(C)c2)nn1
(B) Cc1nnn(-c2ccc(C(F)F)cn2)c1COc1ccc(-n2nccn2)nn1
Pick one: A or B . Which one has the lower reported Papp A→B? Your answer should be the label of the entry you select.
A
(A: 31 ×10⁻⁶ cm/s, B: 54 ×10⁻⁶ cm/s)

(1) Cc1n[nH]c(C)c1-c1ccc(OCc2c(C)nnn2-c2ccc(C(F)F)cn2)nn1
(2) Cc1ncnn1-c1ccc(OCc2c(-c3ccc(C(F)F)cn3)nnn2C)nn1
Pick one: 1 or 2 . Which one has the lower reported Papp A→B? Your answer should be the label of the entry you select.
1
(1: 17 ×10⁻⁶ cm/s, 2: 69 ×10⁻⁶ cm/s)
